The measured values listed here are drawn from ChEMBL document CHEMBL1143495.

Quick list: IC50 per entry.
Target: Multidrug resistance-associated protein 1 (Homo sapiens, UniProt P33527)
Sequence (P33527 whole entry): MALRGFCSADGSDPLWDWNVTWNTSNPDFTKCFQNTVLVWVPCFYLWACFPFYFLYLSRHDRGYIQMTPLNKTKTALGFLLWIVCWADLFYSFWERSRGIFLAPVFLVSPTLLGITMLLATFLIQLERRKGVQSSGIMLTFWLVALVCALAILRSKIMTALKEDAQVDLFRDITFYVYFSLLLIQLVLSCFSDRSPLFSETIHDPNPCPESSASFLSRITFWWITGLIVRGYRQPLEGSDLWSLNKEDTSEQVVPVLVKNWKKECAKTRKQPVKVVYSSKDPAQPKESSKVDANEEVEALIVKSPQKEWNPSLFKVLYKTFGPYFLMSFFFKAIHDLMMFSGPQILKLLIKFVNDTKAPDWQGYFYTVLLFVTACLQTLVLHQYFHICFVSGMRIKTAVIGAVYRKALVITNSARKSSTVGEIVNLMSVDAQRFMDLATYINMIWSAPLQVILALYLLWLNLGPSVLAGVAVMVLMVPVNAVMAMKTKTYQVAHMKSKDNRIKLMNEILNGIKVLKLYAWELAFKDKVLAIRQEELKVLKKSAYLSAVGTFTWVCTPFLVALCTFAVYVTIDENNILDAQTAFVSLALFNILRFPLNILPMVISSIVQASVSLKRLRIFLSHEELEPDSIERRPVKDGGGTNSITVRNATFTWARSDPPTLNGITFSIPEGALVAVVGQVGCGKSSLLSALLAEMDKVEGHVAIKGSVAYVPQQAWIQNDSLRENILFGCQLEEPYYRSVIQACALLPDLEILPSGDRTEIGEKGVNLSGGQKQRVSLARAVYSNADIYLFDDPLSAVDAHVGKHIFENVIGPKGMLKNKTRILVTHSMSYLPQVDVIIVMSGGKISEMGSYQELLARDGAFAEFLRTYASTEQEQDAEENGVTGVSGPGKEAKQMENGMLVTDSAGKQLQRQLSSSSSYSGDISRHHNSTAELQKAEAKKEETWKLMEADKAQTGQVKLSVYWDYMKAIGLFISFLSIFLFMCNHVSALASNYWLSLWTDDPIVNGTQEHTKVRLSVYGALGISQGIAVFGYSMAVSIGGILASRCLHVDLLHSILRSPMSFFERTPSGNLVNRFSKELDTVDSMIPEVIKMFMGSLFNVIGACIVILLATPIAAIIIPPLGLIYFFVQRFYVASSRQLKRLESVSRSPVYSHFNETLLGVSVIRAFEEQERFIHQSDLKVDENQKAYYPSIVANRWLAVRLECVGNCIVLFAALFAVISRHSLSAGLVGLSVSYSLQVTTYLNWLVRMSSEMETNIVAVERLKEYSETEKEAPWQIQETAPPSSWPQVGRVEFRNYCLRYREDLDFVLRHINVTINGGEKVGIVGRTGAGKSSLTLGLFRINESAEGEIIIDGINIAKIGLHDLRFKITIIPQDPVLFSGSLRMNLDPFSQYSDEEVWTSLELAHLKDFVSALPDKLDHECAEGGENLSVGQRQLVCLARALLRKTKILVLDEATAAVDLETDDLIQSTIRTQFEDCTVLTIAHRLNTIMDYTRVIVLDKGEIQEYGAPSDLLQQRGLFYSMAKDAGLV
Experiment: Inhibitory concentration against multidrug resistance associated protein 1

q: Item `N#Cc1c2n(c3c(N4CCN(CCc5ccccc5)CC4)nc(-c4ccccc4)nc13)CCCC2` has what recorded IC50?
a: ≥ 250 nM

q: Endpoint output: IC50 of `N#Cc1c2n(c3c(N4CCN(CCc5ccc(F)c(F)c5)CC4)ncnc13)CCCC2` . Value?
a: < 250 nM

q: # IC50 lookup, item `Cc1nc(-c2c3n(c4c(N5CCN(CCc6ccccc6)CC5)ncnc24)CCCC3)sc1C`
a: ≥ 250 nM

q: Would you mind telling me what IC50 value was observed for `CC(=O)Nc1ccc(-c2nc(N3CCN(CCc4ccccc4)CC3)c3c(n2)c(C#N)c2n3CCCC2)cc1` ?
a: ≥ 250 nM

q: Give the measured IC50 of `N#Cc1c2n(c3c(NCCc4ccccc4)ncnc13)CCCC2` .
a: ≥ 250 nM

q: Param item = `N#Cc1c2n(c3c(N4CCN(CCc5ccccc5Cl)CC4)ncnc13)CCCC2` ; retrieve measured IC50.
a: ≥ 250 nM

q: So what does the record say about IC50 for `N#Cc1c2n(c3c(N4CCN(CC(=O)c5ccccc5)CC4)ncnc13)CCCC2` ?
a: ≥ 250 nM

q: Query (compound): `Cc1cnc2c(c1C(N)=O)c1ncnc(N3CCN(CCc4ccc(F)c(F)c4)CC3)c1n2C` ; field requested: IC50
a: < 250 nM

q: // IC50 lookup, key: `N#Cc1c2n(c3c(N4CCN(CCc5ccc(F)c(F)c5)CC4)nc(-c4cccnc4)nc13)CCCC2`
a: < 250 nM

----------
Listed here: items and their measured IC50.
Target: Multidrug resistance-associated protein 1 (Homo sapiens)
Assay: Inhibitory concentration against multidrug resistance associated protein 1

>  <MOLECULE_SMILES>
N#Cc1c2n(c3c(N4CCN(CCc5ccc([N+](=O)[O-])cc5)CC4)ncnc13)CCCC2

>  <PARAMETER>
IC50

>  <MEASURED_VALUE>
≥ 250 nM

$$$$
>  <MOLECULE_SMILES>
CN(CCc1ccccc1)c1ncnc2c(C#N)c3n(c12)CCCC3

>  <PARAMETER>
IC50

>  <MEASURED_VALUE>
≥ 250 nM

$$$$
>  <MOLECULE_SMILES>
CCC(=O)c1c2n(c3c(N4CCN(CCc5ccccc5)CC4)ncnc13)CCCC2

>  <PARAMETER>
IC50

>  <MEASURED_VALUE>
≥ 250 nM

$$$$
>  <MOLECULE_SMILES>
NC(=O)c1c2n(c3c(N4CCN(CCc5ccc(F)c(F)c5)CC4)ncnc13)CCCC2

>  <PARAMETER>
IC50

>  <MEASURED_VALUE>
< 250 nM

$$$$
>  <MOLECULE_SMILES>
COc1cccc(CNC(=O)c2c3n(c4c(N5CCN(CCc6ccc(F)c(F)c6)CC5)ncnc24)CCCC3)c1OC

>  <PARAMETER>
IC50

>  <MEASURED_VALUE>
< 250 nM

$$$$

q: Return reported IC50; argument: `N#Cc1c2n(c3c(N4CCN(CCc5ccc(F)c(F)c5)CC4)nc(-c4ccncc4)nc13)CCCC2`
a: < 250 nM

q: Recorded IC50 for `N#Cc1c2n(c3c(N4CCN(CCc5ccccc5[N+](=O)[O-])CC4)ncnc13)CCCC2` , please?
a: ≥ 250 nM

q: Recorded IC50 of `COc1ccc(CCN2CCN(c3ncnc4c(C#N)c5n(c34)CCCC5)CC2)cc1` , please.
a: ≥ 250 nM

q: Please give the measured IC50 for this compound: `O=C(NCc1ccccn1)c1c2n(c3c(N4CCN(CCc5ccc(F)c(F)c5)CC4)ncnc13)CCCC2`
a: < 250 nM

q: Recorded IC50 of `N#Cc1c2n(c3c(N4CCN(S(=O)(=O)Cc5ccccc5)CC4)ncnc13)CCCC2` , please.
a: ≥ 250 nM
